The entries below are paired with their reported Activity.
- Test system: CHO
- Test Details: Sensitization of colchicine treated parental (PAR)CHO cells, measured at concentration 0.1(mg/L)
- Type: functional, Cricetulus griseus

// worked examples, Activity included
{"Structure Notation": "CC[C@@H](C)[C@H]1C(=O)N(C)CC(=O)N(C)[C@@H](C(C)C)C(=O)N(C)[C@@H](Cc2ccc(OC)cc2)C(=O)O[C@H](C)C(=O)N2CCCC[C@H]2C(=O)N(C)[C@@H](C(C)C)C(=O)N(C)[C@@H](C(C)C)C(=O)N(C)[C@H](CC(=O)OC(C)(C)C)C(=O)N(C)[C@@H]([C@@H](C)CC)C(=O)N1C", "Activity": 3.6}
{"Structure Notation": "CC[C@@H](C)[C@H]1C(=O)NCC(=O)N(C)[C@@H](C(C)C)C(=O)N[C@@H](Cc2ccc(OC)cc2)C(=O)O[C@H](C)C(=O)N2CCCC[C@H]2C(=O)N(C)[C@@H](C(C)C)C(=O)N[C@@H](C(C)C)C(=O)N(C)[C@H](CC(=O)N2CCCCC2)C(=O)N(C)[C@@H]([C@@H](C)CC)C(=O)N1C", "Activity": 7.1}
{"Structure Notation": "CC[C@@H](C)[C@H]1C(=O)NCC(=O)N(C)[C@@H](C(C)C)C(=O)N[C@@H](Cc2ccc(OC)cc2)C(=O)O[C@H](C)C(=O)N2CCCC[C@H]2C(=O)N(C)[C@@H](C(C)C)C(=O)N[C@@H](C(C)C)C(=O)N(C)[C@H](CC(=O)N(C)C)C(=O)N(C)[C@@H]([C@@H](C)CC)C(=O)N1C", "Activity": 5.9}
{"Structure Notation": "CC[C@@H](C)[C@H]1C(=O)NCC(=O)N(C)[C@@H](C(C)C)C(=O)N[C@@H](Cc2ccc(OC)cc2)C(=O)O[C@@H](C)C(=O)N2CCCC[C@H]2C(=O)N(C)[C@@H](C(C)C)C(=O)N[C@@H](C(C)C)C(=O)N(C)[C@H](CC(=O)NC(C)(C)C)C(=O)N(C)[C@@H]([C@@H](C)CC)C(=O)N1C", "Activity": 8.4}
{"Structure Notation": "CC[C@H](C)[C@H]1C(=O)NCC(=O)N(C)[C@@H](C(C)C)C(=O)N[C@@H](Cc2ccc(OC)cc2)C(=O)O[C@H](C)C(=O)N2CCCC[C@H]2C(=O)N(C)[C@@H](C(C)C)C(=O)N[C@@H](C(C)C)C(=O)N(C)[C@@H](CC(=O)NCCC(C)C)C(=O)N(C)[C@@H]([C@@H](C)CC)C(=O)N1C", "Activity": 5.8}

Query: Activity; subject: `CC[C@@H](C)[C@H]1C(=O)NCC(=O)N(C)[C@@H](C(C)C)C(=O)N[C@@H](Cc2ccc(OC)cc2)C(=O)N[C@@H](C)C(=O)N2CCCC[C@H]2C(=O)N(C)[C@@H](C(C)C)C(=O)N[C@@H](C(C)C)C(=O)N(C)[C@H](CC(=O)OC(C)(C)C)C(=O)N(C)[C@@H]([C@@H](C)CC)C(=O)N1C`
4.6

May I ask what Activity has been recorded for `CC[C@@H](C)[C@H]1C(=O)NCC(=O)N(C)[C@@H](C(C)C)C(=O)N[C@@H](Cc2ccc(OC)cc2)C(=O)O[C@H](C)C(=O)N2CCCC[C@H]2C(=O)N(C)[C@@H](C(C)C)C(=O)N[C@@H](C(C)C)C(=O)N(C)[C@H](CC(=O)NC23CC4CC(CC(C4)C2)C3)C(=O)N(C)[C@@H]([C@@H](C)CC)C(=O)N1C` ?
7.3
